The measurements presented in this section are drawn from patent US9353132B2.

- Protocol Notes: Kinetic stability of prodrug (conversion to 4-OHT) in MCF-7 cell culture
- Type: in vitro ADME, human
- Reported Conditions: human, MCF-7 cell culture; 0 to 144 hours, regression of prodrug concentration relative to 4-OHT
Parameter: half-life (h)

Molecule: CCC(=C(c1ccc(OCCN(C)C)cc1)c1ccc(B(O)O)cc1)c1ccccc1 [Prodrug 3]
half-life, h: 96
//
Molecule: CCC(=C(c1ccc(OCCN(C)C)cc1)c1ccc(B2OC(C)(C)C(C)(C)O2)cc1)c1ccccc1 [Prodrug 1]
half-life, h: 89

====

- Test system: MCF-7 cells
- Protocol Notes: Cell survival/growth inhibition assay in ER+ MCF-7 breast cancer cells
- Format: cell-based, human
- Reported Conditions: dose-response, MCF-7 cells; listed as Boron-4-OHT Prodrug (1)
Parameter: IC50 (nM)
Give the number; nM is assumed, so skip it.

Q. Which measured IC50 value corresponds to CCC(=C(c1ccc(OCCN(C)C)cc1)c1ccc(B2OC(C)(C)C(C)(C)O2)cc1)c1ccccc1 [Prodrug 1] ?
A. 148

====

- System: T47D cells
- Protocol Notes: Cell survival/growth inhibition assay in ER+ T47D breast cancer cells
- Format: cell-based
- Reported Conditions: Homo sapiens, T47D; 10^−7 M
Quick reference for inhibition at 0.1 µM among some molecules
Give the number; % is assumed, so skip it.

Examples from the recorded data:
Molecule: CCC(=C(c1ccc(OCCNC)cc1)c1ccc(B(O)O)cc1)c1ccccc1 [Prodrug 11]
Result Unit: %
inhibition at 0.1 µM: 40
//
Molecule: CC/C(=C(\c1ccccc1)c1ccc(OCCN(C)C)cc1)c1ccccc1
Result Unit: %
inhibition at 0.1 µM: 39
//
Molecule: CCC(=C(c1ccc(OCCN(C)C)cc1)c1ccc(B(O)O)cc1)c1ccccc1 [Prodrug 3]
Result Unit: %
inhibition at 0.1 µM: 44

Here's the next entry for you.
Q. Which measured inhibition at 0.1 µM value corresponds to CCC(=C(c1ccc(OCCN(C)C)cc1)c1ccc(B2OC(C)(C)C(C)(C)O2)cc1)c1ccccc1 [Prodrug 1] ?
A. 42

====

- Tested on: MCF-7 cells
- Protocol Notes: Cell survival/growth inhibition assay in ER+ MCF-7 breast cancer cells
- Format: cell-based, human
- Reported Conditions: dose-response, MCF-7 cells
Parameter: pIC50
pIC50 here is simply -log10 of the concentration when that concentration is written in mol/L.

Q. Which measured pIC50 value corresponds to CCC(=C(c1ccc(OCCN(C)C)cc1)c1ccc([B-](F)(F)F)cc1)c1ccccc1.[K+] [Prodrug 2] ?
A. 8.20
